The measured values listed here are drawn from paper PMC7018972.

Kindly supply the reported SOMULES SEVERITY SCORE values for the records listed here.
Test system: S. mansoni somules
assay: S. mansoni somules phenotypic screen in vitro
Format: cell-based, Schistosoma mansoni
condition-parameters: Table 2S, 10 uM, 48 h

// query I am curious: what SOMULES SEVERITY SCORE value has been reported for O=C1C(=Cc2ccc([N+](=O)[O-])cc2)C(=O)N(CCc2ccccc2)S(=O)(=O)N1CCc1ccccc1 ?
// result 0

// query I am curious: what SOMULES SEVERITY SCORE value has been reported for O=C(C=Cc1ccc2ccccc2c1)c1c(O)ccc2ccccc12 ?
// result 2

// query I am curious: what SOMULES SEVERITY SCORE value has been reported for O=C1C(=Cc2ccc([N+](=O)[O-])s2)C(=O)N(Cc2ccccc2)S(=O)(=O)N1Cc1ccccc1 ?
// result 3

// query I am curious: what SOMULES SEVERITY SCORE value has been reported for C=CCNC(=S)NN=Cc1ccc2c(c1)[n+]([O-])c(C(=O)Nc1ccccc1)c(C)[n+]2[O-] ?
// result 0

====

measured-on: Fasciola hepatica TIM (FhTIM) (Fasciola hepatica, UniProt S4UI50)
Sequence (S4UI50 entry or part of it): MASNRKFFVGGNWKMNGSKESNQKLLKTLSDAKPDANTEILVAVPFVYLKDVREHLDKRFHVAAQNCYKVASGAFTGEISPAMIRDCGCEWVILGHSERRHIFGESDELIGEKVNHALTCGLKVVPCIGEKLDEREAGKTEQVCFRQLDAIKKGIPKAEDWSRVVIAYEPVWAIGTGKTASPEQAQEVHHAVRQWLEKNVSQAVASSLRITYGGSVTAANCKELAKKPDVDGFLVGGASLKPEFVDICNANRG
assay: Inhibition of recombinant FhTIM, coupled enzyme assay
Assay type: biochemical
condition-parameters: Table 1S, screening of 340 compounds in FhTIM; table head prints no unit, µM per b8/b9; read-out: IC50
measured-endpoint: IC50

// query I am curious: what IC50 value has been reported for C=CCNC(=S)NN=Cc1ccc(C)o1 ?
// result > 100 µM

// query I am curious: what IC50 value has been reported for C=CCNC(=S)NN=Cc1ccc(Cl)cc1 ?
// result > 100 µM

// query I am curious: what IC50 value has been reported for Cc1c(CNc2ccc3ccccc3c2)no[n+]1[O-] ?
// result 50 to 100 µM

// query I am curious: what IC50 value has been reported for CCOC(=O)c1cc2c(n1CC)C(=O)C(Oc1ccc(Cl)cc1)=CC2=O ?
// result > 100 µM

// query I am curious: what IC50 value has been reported for CCOC(=O)c1nc2ccc([N+](=O)[O-])cc2n1OC(=O)OCC(C)C ?
// result 100 µM

// query I am curious: what IC50 value has been reported for COCCNC(=O)/C=C/c1ccc([N+](=O)[O-])o1 ?
// result > 100 µM

====

Kindly supply the reported IC50 values for the records listed here.
measured-on: Fasciola hepatica TIM (FhTIM) (Fasciola hepatica, UniProt S4UI50)
assay: Inhibition of recombinant FhTIM, coupled enzyme assay
Assay type: biochemical
condition-parameters: Table 1S, screening of 340 compounds in FhTIM; table head prints no unit, µM per b8/b9; read-out: IC50

// query I am curious: what IC50 value has been reported for O=C1CC(=O)N(CCc2ccccc2)S(=O)(=O)N1CCc1ccccc1 ?
// result > 100 µM

// query I am curious: what IC50 value has been reported for Brc1ccc(-c2c[se]c(=NN=CC=Cc3ccccc3)n2CCN2CCOCC2)cc1 ?
// result 50 to 100 µM

// query I am curious: what IC50 value has been reported for C=CCNC(=S)NN=Cc1cncc(Br)c1 ?
// result > 100 µM

// query I am curious: what IC50 value has been reported for Cc1nnc[n+]([O-])c1C=Cc1ccc2c(c1)OCO2 ?
// result > 100 µM

// query I am curious: what IC50 value has been reported for CN1CC(=Cc2ccccc2)C(=O)C(=Cc2ccccc2)C1 ?
// result > 100 µM

// query I am curious: what IC50 value has been reported for NC1=NC(=O)N=C(N)C1=Cc1ccco1 ?
// result 50 to 100 µM
